Where do these numbers come from? They come from patent US8163724B2.

Hi there, I'd appreciate the recorded pIC50 for every entry that follows.
# targetOfAssay: recombinant human GR (Homo sapiens)
# Construct: purchased Panvera/Invitrogen P2812 (kit P2893)
# Sequence (P04150 whole entry): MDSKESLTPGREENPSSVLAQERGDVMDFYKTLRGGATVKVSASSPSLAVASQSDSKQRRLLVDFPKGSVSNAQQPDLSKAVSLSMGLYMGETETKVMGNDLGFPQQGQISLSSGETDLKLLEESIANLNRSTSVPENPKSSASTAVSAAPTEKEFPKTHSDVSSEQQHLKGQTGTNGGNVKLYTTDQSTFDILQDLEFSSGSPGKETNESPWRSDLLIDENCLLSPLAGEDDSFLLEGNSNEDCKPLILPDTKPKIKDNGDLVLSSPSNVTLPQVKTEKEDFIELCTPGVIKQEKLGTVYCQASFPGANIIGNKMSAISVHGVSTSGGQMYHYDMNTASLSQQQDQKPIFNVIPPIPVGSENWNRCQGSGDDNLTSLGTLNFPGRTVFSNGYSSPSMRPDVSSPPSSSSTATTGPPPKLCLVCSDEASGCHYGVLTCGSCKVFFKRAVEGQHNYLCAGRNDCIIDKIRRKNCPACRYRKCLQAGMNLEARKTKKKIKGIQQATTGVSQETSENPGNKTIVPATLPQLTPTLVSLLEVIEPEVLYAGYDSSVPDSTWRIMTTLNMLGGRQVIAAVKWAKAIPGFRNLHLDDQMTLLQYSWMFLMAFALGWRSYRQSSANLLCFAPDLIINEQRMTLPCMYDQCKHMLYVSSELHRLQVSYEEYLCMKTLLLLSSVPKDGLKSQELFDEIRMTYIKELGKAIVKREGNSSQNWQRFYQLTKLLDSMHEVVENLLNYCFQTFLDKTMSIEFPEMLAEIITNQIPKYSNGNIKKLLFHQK
# assayProtocol: Human Glucocorticoid Receptor (GR) Assay (fluorescence polarization, Panvera/Invitrogen kit)
# Format: binding
# conditionDetails: fluorescence polarization; GS Red tracer; 2 hours at room temperature; 100% control 10 μM Dexamethasone; read-out: Inhibition of GR binding, IC50
Interpret pIC50 as the negative base-10 log of the concentration measured in mol/L.

For the compound Cc1cc(-n2ncc3c2C=C2CC[C@@H]4[C@H]([C@@H](O)C[C@@]5(C)[C@H]4CC[C@]5(OC(=O)C4CC4)C(=O)OCC#N)[C@@]2(C)C3)ccn1 , report pIC50.
8.80

For the compound CCC(=O)O[C@]1(C(=O)SCC(N)=O)CC[C@H]2[C@@H]3CCC4=Cc5c(cnn5-c5ccc(F)cc5)C[C@]4(C)[C@H]3[C@@H](O)C[C@@]21C , report pIC50.
8.51

For the compound C[C@]12Cc3cnn(-c4ccc(F)cc4)c3C=C1CC[C@@H]1[C@@H]2[C@@H](O)C[C@@]2(C)[C@H]1CC[C@]2(OC(=O)c1ccoc1)C(=O)SCCO , report pIC50.
8.19

For the compound C[C@]12Cc3cnn(-c4ccc(F)cc4)c3C=C1CC[C@@H]1[C@@H]2[C@@H](O)C[C@@]2(C)[C@H]1CC[C@]2(OC(=O)C1CCCO1)C(=O)SCF (stereo partly shown) , report pIC50.
8.55

For the compound C[C@]12Cc3cnn(-c4ccc(F)cc4)c3C=C1CC[C@@H]1[C@@H]2[C@@H](O)C[C@@]2(C)[C@H]1CC[C@]2(OC(=O)c1ccco1)C(=O)SCCO , report pIC50.
8.43

For the compound CSC(=O)[C@@]1(OC(=O)[C@H]2CCCO2)CC[C@H]2[C@@H]3CCC4=Cc5c(cnn5-c5ccc(F)nc5)C[C@]4(C)[C@H]3[C@@H](O)C[C@@]21C , report pIC50.
8.92

For the compound C[C@]12Cc3cnn(-c4ccc(F)cc4)c3C=C1CC[C@@H]1[C@@H]2[C@@H](O)C[C@@]2(C)[C@H]1CC[C@]2(OC(=O)C1CCC1)C(=O)SCC#N , report pIC50.
7.96

For the compound CCC(=O)O[C@]1(C(=O)SCC2CC2)CC[C@H]2[C@@H]3CCC4=Cc5c(cnn5-c5ccc(F)cc5)C[C@]4(C)[C@H]3[C@@H](O)C[C@@]21C , report pIC50.
8.00

For the compound COC(=O)[C@@]1(OC(=O)c2ccco2)CC[C@H]2[C@@H]3CCC4=Cc5c(cnn5-c5ccc(F)cc5)C[C@]4(C)[C@H]3[C@@H](O)C[C@@]21C , report pIC50.
8.48

For the compound CC(=O)O[C@]1(C(=O)SCF)CC[C@H]2[C@@H]3CCC4=Cc5c(cnn5-c5ccc(F)cc5)C[C@]4(C)[C@H]3[C@@H](O)C[C@@]21C , report pIC50.
8.17
